assayed_system: UniProt:P01116
Sequence (P01116 1-188 isoform P01116-2): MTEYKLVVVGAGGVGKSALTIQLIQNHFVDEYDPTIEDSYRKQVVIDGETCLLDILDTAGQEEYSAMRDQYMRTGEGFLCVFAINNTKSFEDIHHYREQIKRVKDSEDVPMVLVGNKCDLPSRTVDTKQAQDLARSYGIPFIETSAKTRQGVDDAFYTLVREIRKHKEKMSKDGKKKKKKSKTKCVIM
method_description: KRAS WT Biochemical Assay, BODIPY-GDP Exchange TR-FRET (Example 502; 0.06 nM KRAS WT, 15 nM GDP, 300 nM SOS1, 120-minute incubation)
condition_set: SOS1-mediated BODIPY-GDP exchange, read-out: KRas HTRF IC50
Experimental: Example 502: KRAS WT Biochemical Assay, BODIPY-GDP Exchange TR-FRET. Biochemical compound potencies are assessed by evaluating inhibition of SOS1-mediated nucleotide exchange in KRAS WT. In this assay, the SOS1-promoted exchange of fluorescently-labeled GDP (BOPIDY-GDP) is monitored by time-resolved fluorescence resonance energy transfer (TR-FRET). […] After a 120-minute incubation, the fluorescence is measured with excitation at 337 nm and emission at 490 and 520 nm. […]
pIC50: −log10 of the molar value.
measured_endpoint: pIC50

>  <compound>
Cc1c(F)c(N)cc(-c2nc3c4c(nc(OC[C@H]5CC[C@@H]6C(=O)N(C)CCN56)nc4c2F)N2C[C@H]4CC[C@H](N4)[C@H]2[C@H](C)O3)c1C(F)(F)F (relative stereo) [Compound 123]

>  <measured_endpoint>
pIC50

>  <quantitative_readout>
6.74

$$$$
>  <compound>
C[C@@H]1Oc2nc(-c3cc(N)cc(F)c3C(F)(F)F)c(F)c3nc(OC[C@H]4CC[C@@H]5COC(C)(C)CN45)nc(c23)N2C[C@H]3CC[C@H](N3)[C@@H]12 (relative stereo) [Compound 125]

>  <measured_endpoint>
pIC50

>  <quantitative_readout>
7.83

$$$$

---

IC50 reference
Tested on: PC-9 (KRAS wild type human lung adenocarcinoma cell line)
method_description: KRAS 3D-Cell Proliferation Assay, PC-9 (Example 503)
Format: cell-based
condition_set: 168 h, PC-9 3D culture, 7 days, CellTiter-Glo 3D, read-out: Prolif PC9 3D ATP IC50
measured_endpoint: IC50

>  <compound>
C#Cc1cccc2cc(O)cc(-c3nc4c5c(nc(OC[C@@]67CCCN6C[C@H](F)C7)nc5c3F)N3C[C@H]5CC[C@H](CN5CCCF)[C@H]3CO4)c12

>  <result>
4.91 µM

$$$$
>  <compound>
C#Cc1cccc2cc(O)cc(-c3nc4c5c(ncnc5c3F)N3C[C@H]5CC[C@H](N5)[C@H]3[C@H](C)O4)c12

>  <result>
≥ 20 µM

$$$$
>  <compound>
C[C@@H]1Oc2nc(-c3nc(N)c(F)cc3C(F)(F)F)c(F)c3nc(OC[C@@]45CCCN4CC4(CC4(F)F)C5)nc(c23)N2C[C@H]3CC[C@H](N3)[C@@H]12 (stereo partly drawn)

>  <result>
8.75 µM

$$$$

---

Test system: PC-9 (KRAS wild type human lung adenocarcinoma cell line)
method_description: KRAS 3D-Cell Proliferation Assay, PC-9 (Example 503)
Assay type: cell-based
condition_set: 168 h, PC-9 3D culture, 7 days, CellTiter-Glo 3D, read-out: Prolif PC9 3D ATP IC50

>  <compound>
C#Cc1cccc2cc(O)cc(-c3nc4c5c(nc(OC[C@@]67CCCN6C[C@H](F)C7)nc5c3F)N3C[C@H]5CC[C@H](N5)[C@H]3CO4)c12 [Compound 3]

>  <assayed_system>
PC-9 (KRAS wild type human lung adenocarcinoma cell line)

>  <measurement_units>
µM

>  <op>
≥

>  <IC50>
20

$$$$
>  <compound>
C[C@@H]1Oc2nc(-c3nc(N)c(F)cc3C(F)(F)F)c(F)c3nc(OC[C@@]45CCCN4C[C@H](F)C5)nc(c23)N2C[C@H]3CC[C@H](N3)[C@@H]12 [Compound 84]

>  <assayed_system>
PC-9 (KRAS wild type human lung adenocarcinoma cell line)

>  <measurement_units>
µM

>  <op>
≥

>  <IC50>
20

$$$$
>  <compound>
C=C1CN2CCC[C@@]2(COc2nc3c4c(nc(-c5nc(N)cc(C)c5C(F)(F)F)c(F)c4n2)O[C@@H](C)[C@@H]2[C@@H]4CC[C@H](CN32)N4)C1 [Compound 48]

>  <assayed_system>
PC-9 (KRAS wild type human lung adenocarcinoma cell line)

>  <measurement_units>
µM

>  <op>
≥

>  <IC50>
20

$$$$
>  <compound>
C[C@@H]1Oc2nc(-c3cnccc3C(F)(F)F)c(F)c3nc(OC[C@]45CCN4CC(F)(F)C5)nc(c23)N2C[C@H]3CC[C@H](N3)[C@@H]12 [Compound 78]

>  <assayed_system>
PC-9 (KRAS wild type human lung adenocarcinoma cell line)

>  <measurement_units>
µM

>  <op>
≥

>  <IC50>
20

$$$$
>  <compound>
C[C@@H]1Oc2nc(-c3nc(N)ccc3C(F)(F)F)c(F)c3nc(OC[C@@]45CCCN4C[C@H](F)C5)nc(c23)N2C[C@H]3CC[C@H](N3)[C@@H]12 [Compound 85]

>  <assayed_system>
PC-9 (KRAS wild type human lung adenocarcinoma cell line)

>  <measurement_units>
µM

>  <op>
≥

>  <IC50>
20

$$$$
>  <compound>
Cc1c(F)c(N)cc(-c2nc3c4c(nc(OC[C@@H]5C[C@@H](F)CN5C)nc4c2F)N2C[C@H]4CC[C@H](N4)[C@H]2[C@H](C)O3)c1C(F)(F)F [Compound 26]

>  <assayed_system>
PC-9 (KRAS wild type human lung adenocarcinoma cell line)

>  <measurement_units>
µM

>  <op>
=

>  <IC50>
7.64

$$$$
>  <compound>
Cc1cc(N)c(F)c(-c2nc3c4c(nc(OC[C@@]56CCCN5C[C@H](F)C6)nc4c2F)N2C[C@H]4CC[C@H](N4)[C@H]2[C@H](C)O3)c1C(F)(F)F [Compound 34]

>  <assayed_system>
PC-9 (KRAS wild type human lung adenocarcinoma cell line)

>  <measurement_units>
µM

>  <op>
=

>  <IC50>
6.95

$$$$
>  <compound>
Cc1cc(N)nc(-c2nc3c4c(nc(OC[C@@]56CCCN5C[C@H](F)C6)nc4c2F)N2C[C@H]4CC[C@H](N4)[C@H]2CO3)c1C(F)(F)F [Compound 44]

>  <assayed_system>
PC-9 (KRAS wild type human lung adenocarcinoma cell line)

>  <measurement_units>
µM

>  <op>
≥

>  <IC50>
20

$$$$
>  <compound>
C[C@@H]1Oc2nc(-c3nc(N)c(F)cc3C(F)(F)F)c(F)c3nc(OC[C@]45CCN4CC(F)(F)C5)nc(c23)N2C[C@H]3CC[C@H](N3)[C@@H]12 [Compound 87]

>  <assayed_system>
PC-9 (KRAS wild type human lung adenocarcinoma cell line)

>  <measurement_units>
µM

>  <op>
≥

>  <IC50>
20

$$$$
>  <compound>
Cc1cc(N)nc(-c2nc3c4c(nc(OC[C@@]56CCCN5CC5(CC5(F)F)C6)nc4c2F)N2C[C@H]4CC[C@H](N4)[C@H]2CO3)c1C(F)(F)F (some centres unmarked) [Compound 42]

>  <assayed_system>
PC-9 (KRAS wild type human lung adenocarcinoma cell line)

>  <measurement_units>
µM

>  <op>
=

>  <IC50>
7.04

$$$$
>  <compound>
CCc1cccc2cc(O)cc(-c3nc4c5c(nc(OCC67COC(C6)C7)nc5c3F)N3C[C@H]5CC[C@H](N5)[C@H]3[C@H](C)O4)c12 [Compound 28]

>  <assayed_system>
PC-9 (KRAS wild type human lung adenocarcinoma cell line)

>  <measurement_units>
µM

>  <op>
=

>  <IC50>
11

$$$$
>  <compound>
C[C@@H]1Oc2nc(-c3cncc4cccc(Cl)c34)c(F)c3nc(OC[C@@]45CCCN4C[C@H](F)C5)nc(c23)N2C[C@H]3CC[C@H](N3)[C@@H]12 [Compound 38]

>  <assayed_system>
PC-9 (KRAS wild type human lung adenocarcinoma cell line)

>  <measurement_units>
µM

>  <op>
=

>  <IC50>
7.38

$$$$
>  <compound>
Cc1cc(N)c(F)c(-c2nc3c4c(nc(OC[C@@]56CCCN5C[C@H](F)C6)nc4c2F)N2C[C@H]4CC[C@H](N4)[C@H]2CO3)c1C(F)(F)F [Compound 36]

>  <assayed_system>
PC-9 (KRAS wild type human lung adenocarcinoma cell line)

>  <measurement_units>
µM

>  <op>
=

>  <IC50>
6.11

$$$$
>  <compound>
C#Cc1cccc2cc(O)cc(-c3nc4c5c(nc(OC[C@]67CCN6CC(F)(F)C7)nc5c3F)N3C[C@H]5CC[C@H](N5)[C@H]3[C@H](C)O4)c12 (single isomer, unassigned) [Compound 19]

>  <assayed_system>
PC-9 (KRAS wild type human lung adenocarcinoma cell line)

>  <measurement_units>
µM

>  <op>
=

>  <IC50>
8.8

$$$$
>  <compound>
C#Cc1cccc2cncc(-c3nc4c5c(nc(OC[C@@]67CCCN6CC6(CC6(F)F)C7)nc5c3F)N3C[C@H]5CC[C@H](N5)[C@H]3[C@H](C)O4)c12 (some centres unmarked) [Compound 40]

>  <assayed_system>
PC-9 (KRAS wild type human lung adenocarcinoma cell line)

>  <measurement_units>
µM

>  <op>
=

>  <IC50>
15.7

$$$$
>  <compound>
Cc1cc(N)c(F)c(-c2nc3c4c(nc(OC[C@@]56CCN5CC(F)(F)C6)nc4c2F)N2C[C@H]4CC[C@H](N4)[C@H]2[C@H](C)O3)c1C(F)(F)F [Compound 92]

>  <assayed_system>
PC-9 (KRAS wild type human lung adenocarcinoma cell line)

>  <measurement_units>
µM

>  <op>
=

>  <IC50>
11.2

$$$$
>  <compound>
C[C@@H]1Oc2nc(-c3cc(N)cc(F)c3C(F)(F)F)c(F)c3nc(OC[C@@]45CCCN4C[C@H](F)C5)nc(c23)N2C[C@H]3CC[C@H](N3)[C@@H]12 [Compound 17]

>  <assayed_system>
PC-9 (KRAS wild type human lung adenocarcinoma cell line)

>  <measurement_units>
µM

>  <op>
=

>  <IC50>
7.91

$$$$
